System: C2C12 cells
MEASUREMENT_DESCRIPTION: Alkaline Phosphatase (ALP) functional activity assay in C2C12 cells
Type: cell-based, Mouse
REPORTED_CONDITIONS: compounds of Formula VI, absence of matrix, normalized to DMSO treatment
Description: Alkaline Phosphatase (ALP) Functional Activity Assay: C2C12 cells were plated into 12-well plates with 7,000 cells/well in 1 mL growth media. […] 1, 2, 3, or 4 in 0.1% DMSO was added (500 nM). Half the media was exchanged with fresh media containing compound every 48 hrs. […] After addition of 100 g 0.02 N NaOH, absorbance OD405 was measured. Protein concentration was determined by Bradford protein assay. […]
MEASUREMENT_LABEL: ALP activity −matrix

COc1cc(N(C)C)ccc1C=CC(=O)C1CCCC(=Cc2ccc(N(C)C)cc2OC)C1=O (stereo not shown) ... − (<5%)
COc1cc(C=CC(=O)C2CCCC(=Cc3ccc(OC(=O)C(N)CCCCN)c(OC)c3)C2=O)ccc1OC(=O)C(N)CCCCN (stereo not shown) ... − (<5%)
